Source listed as patent EP4763847A1.

- Test system: HCT116 MTAP KO
- PROTOCOL_DESCRIPTION: Cell proliferation inhibition (CellTiter Glo), HCT116 MTAP KO cells
- Type: cell-based
- SETUP_CONDITIONS: Homo sapiens, HCT-116, 144 h, cultured 6 days with compound
pIC50: −log10 of the molar value.
EXPERIMENTAL_ENDPOINT: pIC50

COMPOUND: CNC(N)=Nc1ccc(C(=O)N(Cc2ccncc2)[C@H](C)c2ccccc2F)cn1
EXPERIMENTAL_ENDPOINT: pIC50
REPORTED_MEASUREMENT: 6.32

COMPOUND: CN/C(N)=N\c1ccc(C(=O)N(Cc2ccc3nn(C)cc3c2)[C@H](C)c2ccccc2F)cn1
EXPERIMENTAL_ENDPOINT: pIC50
REPORTED_MEASUREMENT: 6.45

A: CNC(N)=Nc1ccc(C(=O)N(Cc2ccc(C(F)(F)F)cn2)C(C)c2cccc(C)c2)cn1 (stereo not shown)
B: CNC(N)=Nc1ccc(C(=O)N(Cc2ccccc2)Cc2ccc(C(F)(F)F)cn2)cn1
Query block: Which of the two items, A and B , has the greater recorded pIC50? Reply briefly: the label of your chosen item.
Result block: A
(A: 6.52, B: 6.28)
